# Test system: NCI-H322M lung
# Assay Summary: NCI-60 one-dose screen, 48 h
# Experimental Conditions: 10 µM unless noted
This is part of a sample that, as a whole, favours compounds with a hit. Of some 83,000 tested, about 20% had one in any assay. Activity calls are given as the source filed them. Rule for the calls: active = growth percent below 10; inactive = the rest.
Valid outcomes are listed here; reply with one: T for active, F for inactive

Challenge: Hey, what did the test say about COc1c(Cl)ccc2c(-c3nc4cc(Cl)c(F)cc4s3)cc(=O)oc12 ?
Response given: F

Challenge: Give the logged outcome of this assay for the following compound: CC1CCCCN1S(=O)(=O)c1ccc(CN=C=S)cc1 (configuration not stated)
Response given: F

Challenge: For this compound, state the assay outcome: CC1=CN2C(=NC3=C(CCCC/C3=C\c3ccccc3)C2c2ccccc2)S1 (configuration not stated)
Response given: F

Challenge: For O=C1c2[nH]cc(CN[C@@H]3CCCN3)c2C(=O)c2c1c(O)c1ccccc1c2O , what call appears in the results of this test?
Response given: T

Challenge: // return assay outcome for Oc1cccc(Nc2nc(-c3ccccn3)cs2)c1
Response given: F

Challenge: Lab log entry: NS(=O)(=O)c1cc(Br)c2c(c1)S(=O)(=O)NCN2 — outcome as called in the assay?
Response given: F

Challenge: Could you kindly confirm the outcome this assay logged for COc1cc(C2CC(=O)Nc3c2ccc2ccccc32)cc(Br)c1OC (configuration not stated) ?
Response given: F

Challenge: Entry O=C(COc1ccc(/C=C2\CSc3ccccc3C2=O)cc1)c1ccc(Cl)cc1 : call = ?
Response given: F

Challenge: What did the test return for COc1ccc(OC)c(C2C(C#N)=C(N)Oc3cc(O)ccc32)c1 (configuration not stated) ?
Response given: F

----------
# System: SK-OV-3 ovarian
# Assay Summary: NCI-60 one-dose screen, 48 h
# Experimental Conditions: 10 µM
About 83,000 compounds went through this panel and 20% of them were active in at least one assay; those are over-represented in the sample as a whole. Active and inactive are the calls of the source. Rule for the calls: active = growth percent below 10; inactive = the rest.
Please reply with one of these outcomes: Yes = active, No = inactive

Consider the worked cases shown below.
{"Compound String": "O=[N+]([O-])c1cc2c(cc1Br)-c1ccccc1C2", "Assigned Label": "No"}
{"Compound String": "CCOC(=O)c1c(-c2cc(OC)c(OC)c(OC)c2)csc1N", "Assigned Label": "No"}

Challenge: Which outcome was entered for the compound COc1ccc(-c2c3c(N)c4c(nc3nc3c2c(C)nn3-c2ccccc2)CCCCC4)cc1 in this test?
Response given: No

Challenge: Dear all, I need the recorded test outcome for C=CC(=O)N1CC2(CC(n3nc(-c4ccc(Oc5ccccc5)cc4)c4c(N)ncnc43)C2)C1 , thank you.
Response given: Yes

----------
# System: HCT-15 colon
# Assay Summary: NCI-60 one-dose screen, 48 h
# Experimental Conditions: 10 µM unless noted
This is part of a sample that, as a whole, favours compounds with a hit. Of some 83,000 tested, about 20% had one in any assay. Calls of active or inactive are those of the source. How the source made its calls: active means growth percent below 10; inactive means the rest.
Log the outcome using a class from active, inactive

{"Molecule": "CCOC(=O)c1[nH]c2cc(Cl)ccc2c1[C@@H](C(=O)NC(C)(C)C)N(CC)C(=O)CCCCC#Cc1cccc2c1CN(C1CCC(=O)NC1=O)C2=O (stereo not given in full)", "Assigned Label": "active"}

Challenge: Hi, sorry to bother you, what did the test record for O=c1[nH]c(-c2ccccn2)nc2sc3c(c12)CCCCCC3 ?
Response given: inactive

Challenge: Tell me the recorded outcome of this test for CCOC(=O)c1cnn(CC(O)c2ccc(F)cc2)c1NC(=O)Nc1ccccc1F (stereo not given) .
Response given: inactive

Challenge: For CCOC(=O)c1c(Cl)c2c(n1Cc1ccc(OC)cc1)-c1oncc1CCC2 , which call appears in the assay record?
Response given: inactive

Challenge: Which outcome was entered for the molecule CC(=O)c1cc(C)c(OC(=O)c2ccccc2)c(C)c1 in this test?
Response given: inactive

Challenge: Can you look up the reported call for C=C(C)COC(=O)c1ccccc1C(=O)OCC1(C)CO1 (stereo not given) for me?
Response given: inactive

Challenge: // param item: CC(C)(C)[Si](C)(C)OC1[C@@H](CNC(=O)NC(=O)CCl)O[C@@H](n2cnc3c(N)ncnc32)[C@H]1O[Si](C)(C)C(C)(C)C (stereo not given in full) ; yields the recorded call
Response given: active

Challenge: Please let me know the test result on file for COC(=O)[C@@H]1CCCN1C(=O)[C@@H]1CCCN1C(=O)[C@@H](Cc1c[nH]c2ccccc12)NC(=S)Nc1cc(C(F)(F)F)cc(C(F)(F)F)c1 .
Response given: inactive

Challenge: What is the recorded call for this molecule in the test? Nc1nc(N)c(N=Nc2c(Br)cc(S(N)(=O)=O)cc2Br)c(N)n1
Response given: inactive

Challenge: Recorded test outcome, item Cn1cc(C(=O)NCCC(=N)N)cc1NC(=O)CN=C(N)N
Response given: inactive

Challenge: Record request — test call for Nc1c(Br)cc(Br)cc1-c1n[nH]c(=O)[nH]c1=O
Response given: inactive

Challenge: Outcome? Nc1cccc2c(=S)c3ccccc3[nH]c12
Response given: inactive

Challenge: Tell me the assay call for COc1cc(OCc2cccc(-c3ccc(C(O)c4nccs4)cc3)c2C)cc(OC)c1C=O (stereo not given) please.
Response given: inactive

Challenge: Query: recorded result category for Cc1ccc(NS(=O)(=O)c2ccc(-c3cnc(C4CC4)o3)cc2)cc1 in this test
Response given: inactive

Challenge: Dear all, I need the recorded test outcome for COc1ncnc2c1ncn2C/C(Br)=C(\Br)CCl , thank you.
Response given: inactive

Taken from PubChem BioAssay (NCI).
